All figures here come from the supplement of paper PMC8269313.

Reported % inhibition of 4T1 cell number values follow for various compounds
- Test system: 4T1
- testProtocol: % inhibition of 4T1 cell number vs DMSO control; higher = stronger growth inhibition
- setupConditions: 1 µM; 3 days; substrate: Matrigel
reportedMetric: % inhibition of 4T1 cell number

> print(dat)
                                   compound  observed
1  O=C1NC(=O)/C(=C/c2ccc3c(c2)OC(F)(F)O3)S1     27.2%
2  CC(C)(C)c1nc2c3cc[nH]c(=O)c3c3cc(F)ccc3c2[nH]1    -23.5%
3           NC(=O)Nc1sc(-c2ccccc2)cc1C(N)=O      -32%
4  CN(C)CCCn1cc(C2=C(c3c[nH]c4ccccc34)C(=O)NC2=O)c2ccccc21 [Bisindolylmaleimide I]     46.6%
5            O=C1c2ccccc2-c2n[nH]c3cccc1c23    -51.1%
6  N#CCCc1ccc2c(c1)-c1[nH]c3ccc([N+](=O)[O-])cc3c1CC(=O)N2     55.6%
7                 Cn1sc(=O)n(Cc2ccccc2)c1=O    -33.1%
8  O=C1NC(=O)C(c2c[nH]c3ccccc23)=C1c1c[nH]c2ccccc12 [Bisindolylmaleimide IV]     24.5%

* * *

- Tested on: 4T1
- testProtocol: % inhibition of 4T1 cell number vs DMSO control; higher = stronger growth inhibition
- setupConditions: 1 µM; 3 days; substrate: mCAF1 fibroblast-derived matrix
Where a name gives a salt, the structure may show the parent alone.
# % inhibition of 4T1 cell number >= 30% gives criterion met, anything below gives criterion not met

compound	group
c1ccc2c(-c3ccncc3)c[nH]c2c1	criterion met
c1ccc(-c2n[nH]c3c2oc2ccccc23)cc1	criterion not met
CC[C@H](CO)Nc1nc(NCc2ccc(-c3ccccn3)cc2)c2ncn(C(C)C)c2n1 [CR8, (R)-Isomer]	criterion met
COc1ccc2c(c1)c1c3c(c4c5ccccc5n(C)c4c1n2CC(O)CN(C)C)C(=O)NC3=O (centres undefined)	criterion not met
O=C(O)C=Cc1cc(Br)c(Br)c(Br)c1Br	criterion not met
c1cc(-c2cnn3cc(-c4ccc(OCCN5CCCCC5)cc4)cnc23)ccn1	criterion not met
COc1cc2ncnc(Nc3ccc(Cl)cc3Cl)c2cc1OC	criterion not met
CN(C)CCCn1cc(C2=C(c3c[nH]c4ccccc34)C(=O)NC2=O)c2ccccc21 [Bisindolylmaleimide I]	criterion not met
N#CCCc1ccc2c(c1)-c1[nH]c3ccc([N+](=O)[O-])cc3c1CC(=O)N2	criterion met
COc1cc(SC)ccc1C(=O)N1CCC(Cc2ccccc2)CC1	criterion not met
O=c1c(O)c(-c2ccc(O)c(O)c2)oc2cc(O)c(O)c(O)c12	criterion met
O=C1Cc2c([nH]c3ccc(Br)cc23)-c2ccccc2N1	criterion not met
Cc1ccc(S(=O)(=O)/C=C/C#N)cc1	criterion not met
c1ccc(-c2cnc(Nc3ccc(OCCN4CCCC4)cc3)s2)cc1	criterion met
Nc1nc(Nc2ccc(S(N)(=O)=O)cc2)nn1C(=S)Nc1c(F)cccc1F	criterion met
Nc1ncnc2c1c(I)cn2[C@@H]1O[C@H](CO)[C@@H](O)[C@H]1O	criterion met
O=c1cc(N2CCOCC2)oc2c1ccc1ccccc12	criterion not met
NCCNc1ncc(C(N)=O)c(Nc2cccc(C(F)(F)F)c2)n1	criterion not met
O=C1NC(=O)C(c2c[nH]c3ccccc23)=C1c1c[nH]c2ccccc12 [Bisindolylmaleimide IV]	criterion not met
CO[C@H]1C[C@@H]2CC[C@@H](C)[C@@](O)(O2)C(=O)C(=O)N2CCCC[C@H]2C(=O)O[C@H]([C@H](C)C[C@@H]2CC[C@@H](O)[C@H](OC)C2)CC(=O)[C@H](C)/C=C(\C)[C@@H](O)[C@@H](OC)C(=O)[C@H](C)C[C@H](C)/C=C/C=C/C=C/1C	criterion not met
O=C(Nc1ccc(Cl)cc1)c1ccccc1NCc1ccncc1	criterion not met
CC(C)(C)c1ccc(S(=O)(=O)Nc2ccc(-n3ccnc3)cc2)cc1	criterion not met
Cc1cc(C=C2C(=O)C=CC2=O)cc(C)c1O	criterion not met
O=Nc1c(-c2c(O)[nH]c3cc(Br)ccc23)[nH]c2ccccc12	criterion met
CC(C)n1cnc2c(NCc3ccccc3)nc(NCCCO)nc21	criterion not met
O=[N+]([O-])c1ccc(-c2nc(-c3ccc(F)cc3)c(-c3ccncc3)[nH]2)cc1	criterion not met
NC(=O)Nc1sc(-c2ccccc2)cc1C(N)=O	criterion not met
COc1ccc(COc2ccc(Cc3cnc(N)nc3N)cc2OC)cc1	criterion not met
O=S(=O)(c1cccc2c(I)cccc12)N1CCCNCC1 [ML-7, Hydrochloride]	criterion met
O=C1Nc2ccc(Cl)cc2/C1=C/c1cc(Cl)c(O)c(Cl)c1 [PKR Inhibitor, Negative Control]	criterion not met
OCC(O)CCO/N=C1\C(c2c(O)[nH]c3ccccc23)=Nc2ccccc21 (centres undefined)	criterion met
CC[C@H](CO)Nc1nc(NCc2ccccc2)c2ncn(C(C)C)c2n1	criterion not met
Cc1ccc(NC2=CC(=O)c3sc(C)nc3C2=O)cc1	criterion not met
